Experiment: acute toxicity (LD50) by intraperitoneal administration in mice
Conditions: mouse, in vivo, ip, mice (male, 20 g)
From the text: On the other hand, LD50 values for N^2 -dansyl-N-butyl-L-argininamide and N^2 -dansyl-N-methyl-N-butyl-L-argininamide are 75 and 70 milligrams per kilogram, respectively.
quantity.measured: LD50

[in] What measured LD50 goes with COc1cc2ccc(S(=O)(=O)N[C@@H](CCCNC(=N)N)C(=O)N(CCc3ccccc3)CC(=O)O)cc2cc1OC [Sample 6] ?
[out] > 1500 mg/kg

[in] What measured LD50 goes with COc1ccc2cc(S(=O)(=O)N[C@@H](CCCNC(=N)N)C(=O)N(CC(=O)O)Cc3ccccc3)cc(OC)c2c1 [Sample 10] ?
[out] > 1000 mg/kg

[in] What measured LD50 goes with COc1cc2ccc(S(=O)(=O)N[C@@H](CCCNC(=N)N)C(=O)N(CC(=O)O)Cc3ccccc3)cc2cc1OC [Sample 2] ?
[out] > 1000 mg/kg

[in] What measured LD50 goes with CCCCNC(=O)[C@H](CCCNC(=N)N)NS(=O)(=O)c1cccc2c(N(C)C)cccc12 [N^2 -dansyl-N-butyl-L-argininamide, reference compound] ?
[out] 75 mg/kg

[in] What measured LD50 goes with CCCCN(C)C(=O)[C@H](CCCNC(=N)N)NS(=O)(=O)c1cccc2c(N(C)C)cccc12 [reference compound] ?
[out] 70 mg/kg

[in] What measured LD50 goes with COc1cccc2c(S(=O)(=O)N[C@@H](CCCNC(=N)N)C(=O)N(CC(=O)O)Cc3ccccc3)cccc12 [Sample 18] ?
[out] > 1000 mg/kg
